The reported measurements were obtained from ChEMBL document CHEMBL5050844.

# assay-procedure: Induction of allogenic human T cell activation at 10 uM assessed fold increase in cell proliferation
# Format: functional, T cell line
The following molecules are listed with their measured fold change (FC) values.
Respond numerically, and do not add a unit to the figure.

# example entries with known answers
C[C@H](Cc1nncn1C)c1cccc(N2Cc3c(cc(CN4CC(O)C4)cc3C(F)(F)F)C2=O)c1    2.01
C[C@H](Cc1nncn1C)c1cccc(N2Cc3c(cc(CN4CC(C)(O)C4)cc3C(F)(F)F)C2=O)c1    2.01

Q) I have this molecule here, "Cn1cnnc1CC1(c2cccc(N3Cc4c(cc(CN5CC[C@H](C#N)C5)cc4C(F)(F)F)C3=O)c2)COC1" , and I need its recorded fold change (FC).
A) 2.01
